Endpoint: melting point (°C)

INSERT INTO assay_data (molecule, endpoint, experimental_value) VALUES
  ('O=C1NCCn2c1cc1cc(F)cc(-c3ccc(F)c(F)c3)c12 [Example 22]', 'melting point', 289.5);

P: COc1ccc(-c2cc(Cl)cc3c(C)c4n(c23)CCNC4=O)cn1 [Example 111]
Q: N#Cc1cc(-c2cncnc2)c2c(c1)cc1n2CCNC1=O [Example 225]
Challenge: Which value of melting point is numerically greater: that of P or that of Q ? Indicate which entry you chose by stating its label.
Response given: Q

---

test system: human embryonic stem cell derived neural stem cells (NSCs); assay: Neural Stem Cell Proliferation Assay (neurogenesis assay, ATP levels by CellTiterGlo); format: cell-based; conditions: 96 h, compound concentration at which 150% activity of control (100%) is reached, NSC proliferation by ATP level after 4 days incubation, dose response 8 μM to 8 nM
Endpoint: EC (150% of control) (µM)
Field format: number, assumed µM, no unit text.

Here is how some compounds turned out for EC (150% of control).
INSERT INTO assay_data (smiles_representation, experimental_value) VALUES
  ('Cc1cc(-c2ccc(F)c(F)c2)c2c(c1)cc1n2CCNC1=O', 0.71),
  ('Cc1c2n(c3c(-c4ccc(F)cc4)cc(C#N)cc13)CCNC2=O', 0.021),
  ('O=C1NCCn2c1cc1c(F)c(F)cc(-c3ccc(Cl)cc3)c12', 1.4),
  ('Cc1cc(-c2cc(C#N)cc3c(C)c4n(c23)CCNC4=O)ccc1F', 0.089),
  ('N#Cc1cc(-c2ccc(Cl)cc2F)c2c(c1)cc1n2CCNC1=O', 0.019),
  ('Cc1c2n(c3c(-c4ccc(F)nc4)cc(F)cc13)CCNC2=O', 0.13);

Challenge: Please report the recorded EC (150% of control) for `Cc1c2n(c3c(-c4cccc(F)c4)cc(C#N)cc13)CCNC2=O` .
Response given: 0.06

Challenge: Please report the recorded EC (150% of control) for `Cc1c2n(c3c(-c4ccc(C(F)(F)F)cc4)cc(C#N)cc13)CCCNC2=O` .
Response given: 0.14

Challenge: Please report the recorded EC (150% of control) for `Cc1c2n(c3c(-c4ccc(F)nc4)cc(C#N)cc13)CCNC2=O` .
Response given: 0.066
